Entry source: PubChem BioAssay (Tox21)

# target.or.system: Nuclear receptor subfamily 1 group I member 2 (Homo sapiens)
# test.description: Human pregnane X receptor (PXR) small molecule agonists, qHTS assay (AID 1346982); also: nearly all actives have a fitted effect of over 35% in size
# condition.label: PXR-Luc HepG2, CYP3A4 luciferase reporter, 24 h; series mostly up to 92.4 µM
Records with an inconclusive call do not appear. Calls of active or inactive are those of the source. Calls follow the shape of the dose curve; as a rule, active = well fitted activation curve with a large enough effect in the repeat runs; inconclusive = weak or mixed curves; inactive = no such curve, though single readings can be large or run the other way.
Write down the outcome that applies. Available outcomes: 1.0 = active, 0.0 = inactive

Known results for molecules:
> print(dat)
                             molecule                          target.or.system  group.label
1  CCCCC(CC)COCCCN (stereo not drawn)  Nuclear receptor subfamily 1 group I member 2 (Homo sapiens)          1.0
2      CNCC[C@@H](Oc1ccccc1C)c1ccccc1  Nuclear receptor subfamily 1 group I member 2 (Homo sapiens)          0.0
3                  COc1ccc(C(C)=O)cc1  Nuclear receptor subfamily 1 group I member 2 (Homo sapiens)          0.0
4                       COC(=O)C(C)=O  Nuclear receptor subfamily 1 group I member 2 (Homo sapiens)          0.0
5                       CN(C)CCCNCCCN  Nuclear receptor subfamily 1 group I member 2 (Homo sapiens)          0.0

In: Give the logged outcome of this assay for the following molecule: CCCCCC/C=C/C=O
Out: 0.0

In: Write down the call the test reported for this molecule. Item: ClC(Cl)(Cl)c1ccc(C(Cl)(Cl)Cl)cc1
Out: 0.0

In: Call for entry CCOC(=S)SSC(=S)OCC :
Out: 0.0
